Molecular target: T1, human IGF2^1-67 (mature insulin-like growth factor 2) (human, UniProt P01344 25-91, biotinylated (site not stated) where immobilised on the chip (Tables 1-4))
T1 construct: mature; also called mature IGF2; biotinylated IGF2
T1 sequence (P01344 25-91): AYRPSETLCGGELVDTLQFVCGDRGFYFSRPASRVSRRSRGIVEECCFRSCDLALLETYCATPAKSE
Experiment: SPR kinetic, biotin-IGF2 on chip, pH 6.5
measurementKind: koff (s⁻¹)
Return type: number; implicit unit s⁻¹.

domain 11^AB5 Q1569R P1597H S1602H (receptor, See m5) MKSNEHDDCQVTNPSTGHLFDLSSLSGRAGFTAAYAKGWGVYMSICGENENCPPGVGACFGRTRISVGKANKRLRYVDQVLQLVYKDGSHCPSKHGLSYKSVISFVCRPEAGPTNRPMLISLDKQTCTLFFSWHTPLACEQATECSV: 0.003
domain 11^AB3 Q1569R P1597H (receptor, See m5) MKSNEHDDCQVTNPSTGHLFDLSSLSGRAGFTAAYSKSGVVYMSICGENENCPPGVGACFGRTRISVGKANKRLRYVDQVLQLVYKDGSHCPSKSGLSYKSVISFVCRPEAGPTNRPMLISLDKQTCTLFFSWHTPLACEQATECSV: 0.0091

Ask | I am curious: what koff value has been reported for domain 11^AB3 Q1569R P1597H S1602H (receptor, See m5) MKSNEHDDCQVTNPSTGHLFDLSSLSGRAGFTAAYSKSGVVYMSICGENENCPPGVGACFGRTRISVGKANKRLRYVDQVLQLVYKDGSHCPSKHGLSYKSVISFVCRPEAGPTNRPMLISLDKQTCTLFFSWHTPLACEQATECSV ?
Reply | 0.0064

Ask | Same thing, different binder: IGF2R domain 11^WT (receptor, Soluble His6-tagged domain 11 from P. pastoris and/or E. coli; also called wild-type domain 11) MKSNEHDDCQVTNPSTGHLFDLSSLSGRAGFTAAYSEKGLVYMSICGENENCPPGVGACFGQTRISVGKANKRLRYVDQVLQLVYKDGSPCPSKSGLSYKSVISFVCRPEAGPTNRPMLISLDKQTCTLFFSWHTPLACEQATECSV
Reply | 0.144

Ask | Same thing, different binder: IGF2R domain 11^AB5 (receptor, His6-tagged soluble domain 11; also called 1542YAKGWG1547) MKSNEHDDCQVTNPSTGHLFDLSSLSGRAGFTAAYAKGWGVYMSICGENENCPPGVGACFGQTRISVGKANKRLRYVDQVLQLVYKDGSPCPSKSGLSYKSVISFVCRPEAGPTNRPMLISLDKQTCTLFFSWHTPLACEQATECSV
Reply | 0.018
